B1: Nuclear receptor subfamily 4 group A member 2, residues 260 to 336; numbered along this chain, P43354 (parent)
chain: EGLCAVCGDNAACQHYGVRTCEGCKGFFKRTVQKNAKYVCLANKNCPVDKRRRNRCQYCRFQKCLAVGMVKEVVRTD

- Variants of: B1
- test.details: abundance fitness (aPCA) (normalised: wild type 0, dead -1); higher = more abundant; growth selection in yeast, the domain comes from the species named
- experimental.conditions: Homo sapiens
measurement.label: abundance fitness
# answer = number (no unit)

Q: Report abundance fitness, nothing else, for this variant: "EGLCAVCGDNAACQHYGVRTCEGCKGFFKRTVQKNAKYVCLANKNCPVDKRRRNRCQYCRFQKSLAVGMVKEVVRTD"
Ans: -0.397

Q: Tell us which abundance fitness value is on record for "EGLCAVCGDNAACQHLGVRTCEGCKGFFKRTVQKNAKYVCLANKNCPVDKRRRNRCQYCRFQKCLAVGMVKEVVRTD"
Ans: -0.081

Q: Give the measured abundance fitness for "EGLCAVCGDNAACQHYGVRTCEGCKGFFKRTVQKNAKYVCLANKNCPVDKRRRNRCQYCRFQKCLVVGMVKEVVRTD"
Ans: -0.17

Q: Answer with the recorded abundance fitness for the variant listed here: "EGLCAVCGDNAACQHYGVRTCGGCKGFFKRTVQKNAKYVCLANKNCPVDKRRRNRCQYCRFQKCLAVGMVKEVVRTD"
Ans: -0.142

Q: Note down abundance fitness recorded for "EGLCAVCGDNAACQHYGVRTCEGCKGFFKRTVQKNAKYVCLANKNCPVDKRRRNRCQYCRFQKCLAVGMGKEVVRTD"
Ans: -0.017

Q: Look up and state reported abundance fitness for "EGLCAVCGDNAACQHYGVRTCEGCKGFFKRTVQKNAKYVCLANKNCPVDKRRRNYCQYCRFQKCLAVGMVKEVVRTD"
Ans: 0.038

Q: Read the entry "EGLCAVCGDNAACQHYGVRTCEGCKGFFKRTVQKNAKYVCLAAKNCPVDKRRRNRCQYCRFQKCLAVGMVKEVVRTD" and write its reported abundance fitness.
Ans: 0.245

Q: Input "EGLCAVCGDNAACQHYGVRTCEGCKGFFKRTVQKNAKYPCLANKNCPVDKRRRNRCQYCRFQKCLAVGMVKEVVRTD" , output reported abundance fitness.
Ans: 0.158

Q: Determine its reported abundance fitness: "EGLCAVCGDNAACRHYGVRTCEGCKGFFKRTVQKNAKYVCLANKNCPVDKRRRNRCQYCRFQKCLAVGMVKEVVRTD"
Ans: -0.061

Q: Using the record for "EGLCAVCGDNAACQHYGVRTCEGCKGFFKRTVQKNAKYVCLANKNCPVDKRRRNRCQYCRFQKCLAVGMVQEVVRTD" , state its measured abundance fitness.
Ans: 0.33

Q: Specify reported abundance fitness for the variant shown: "EGLCAVCGDNAACQHYGVRTCEGCKGFMKRTVQKNAKYVCLANKNCPVDKRRRNRCQYCRFQKCLAVGMVKEVVRTD"
Ans: -0.176

Q: Read off the recorded abundance fitness for "EGLCAVCGDNAAIQHYGVRTCEGCKGFFKRTVQKNAKYVCLANKNCPVDKRRRNRCQYCRFQKCLAVGMVKEVVRTD"
Ans: -0.298

Q: Give the value of abundance fitness reported for the following: "EGLCAVCGDNAACQHYGVRTCEGCKRFFKRTVQKNAKYVCLANKNCPVDKRRRNRCQYCRFQKCLAVGMVKEVVRTD"
Ans: -0.174

Q: Input "EGLCAVCGDNAACQHYGVRTCEGCKGFFKRTVQKNAKYVCLANKNCPVDKRRRNRCQYCRFQKCLAVDMVKEVVRTD" , output reported abundance fitness.
Ans: -0.403

Q: Using the record for "EGLCAVCGDNAACQHYGVRTCEGCLGFFKRTVQKNAKYVCLANKNCPVDKRRRNRCQYCRFQKCLAVGMVKEVVRTD" , state its measured abundance fitness.
Ans: 0.057

Q: Specify abundance fitness for "EGLCAVCGDNAACQHYGVRTCEGCKGFFKRTVQKNAKYVCLANKNCPVDKRRRNRCQYCRFQKCLAVGIVKEVVRTD" and stop.
Ans: -0.618

Q: Hello, please tell me recorded abundance fitness for this one: "EGLCAVCGDNAACQHYGVRTCEGCKGFFKGTVQKNAKYVCLANKNCPVDKRRRNRCQYCRFQKCLAVGMVKEVVRTD"
Ans: -0.235

Q: Provide one value: measured abundance fitness of "EGLCAVCGDNAACQHYGVRTCEGCKGFFKRTVQKNAKYVCLANKNCPVTKRRRNRCQYCRFQKCLAVGMVKEVVRTD"
Ans: 0.013

Q: Tell me abundance fitness reported for "EGLCAVCGDNAACQHYGVRTCEGCKGFFKRTVQKNAKYVCLANKNCPVDKRRRNRCQYCRFQKCLAVGMVKEVVMTD"
Ans: 0.019

Q: Give the reported value of abundance fitness for this record: "EGLCAVCGDNAACQHYGVRTCEGCKGFFKRTVQKNAKYVCLANKNCPVDKRRRNRCQYCRFQKCLAIGMVKEVVRTD"
Ans: 0.058

Q: Could you please provide reported abundance fitness for "EGLCAVCGDNAACQHYGVRTCEGCKGFFKRTVQKNAKYVCLANKNCPVDKRRRNRCQYCRFQKCLAVGMVFEVVRTD" ? Thanks!
Ans: -0.258

Q: Given the variant "EGLCAVCGDNAACQHYGVRTCEGCKGFFKRTVQKNAKYVCLANKNCPVDKRRRNRCQYCRFQKCLAVGMVKEVIRTD" , write its reported abundance fitness.
Ans: 0.091

Q: Annotate the variant "EGLCAVCGDNAACQHYGVRTCEQCKGFFKRTVQKNAKYVCLANKNCPVDKRRRNRCQYCRFQKCLAVGMVKEVVRTD" with its measured abundance fitness.
Ans: -0.208

Q: // Input: "EGLCAVCGDNAACQHYGVRTCEGCKGFFKRTVQKNAKYVCLANKNCPVDKRRRNRCQYCRFQKCLAVGWVKEVVRTD" . Output its abundance fitness only.
Ans: -0.235

Q: Specify measured abundance fitness for "EGLCAVCGDNAACQHYGVRTCEGCKGFVKRTVQKNAKYVCLANKNCPVDKRRRNRCQYCRFQKCLAVGMVKEVVRTD" .
Ans: -0.017

Q: For "EGLCAVCGDNAACQHYGVRTCEGCKGFFKRTRQKNAKYVCLANKNCPVDKRRRNRCQYCRFQKCLAVGMVKEVVRTD" , write its abundance fitness.
Ans: 0.256

Q: Supply recorded abundance fitness for "EGLCAVCGDNAACQHYGVRTCEGCKGFFKRTVQWNAKYVCLANKNCPVDKRRRNRCQYCRFQKCLAVGMVKEVVRTD" here.
Ans: -0.227

Q: Quick one: give measured abundance fitness for "EGLCAVCGDNAACQHYGVATCEGCKGFFKRTVQKNAKYVCLANKNCPVDKRRRNRCQYCRFQKCLAVGMVKEVVRTD"
Ans: 0.015

Q: In one line, give reported abundance fitness of the entry "EGLCAVCGDNAACQHYGVRTCEGCKGFFKRTVQKNAKYVCLANKNCPMDKRRRNRCQYCRFQKCLAVGMVKEVVRTD" .
Ans: -0.032

Q: Supply measured abundance fitness of "EGLCAVCGDNAACQHYGVRTCEGCKGFFKRTVQKNAKYVCLANKNCPVDGRRRNRCQYCRFQKCLAVGMVKEVVRTD" in your reply.
Ans: -0.045

Q: Answer with the recorded abundance fitness of "EGLCAVCGDNAACQHYGVRTCEGCKAFFKRTVQKNAKYVCLANKNCPVDKRRRNRCQYCRFQKCLAVGMVKEVVRTD" only.
Ans: -0.079

Q: Output abundance fitness of "EGLCAVCGDNAACQHYGVRTCEGCKGFFKRTVQKNAKYVCLANKNCPVDYRRRNRCQYCRFQKCLAVGMVKEVVRTD"
Ans: 0.024

Q: Note abundance fitness for the variant shown: "EGLCAVCGDNAACQHYGVRTCEGCKGFFKRQVQKNAKYVCLANKNCPVDKRRRNRCQYCRFQKCLAVGMVKEVVRTD"
Ans: -0.167

Q: Read off the recorded abundance fitness for "EGLCAVCGDNAACQHYGVRTCEGCKGFFKRTVQKNAKYVCLANKNCPVDKRRRNRCQYCRFQKCLAVGMVKEVVRSD"
Ans: -0.014

Q: State its abundance fitness: "EGLCAVCGDNAACQHYGVRTCEGCKGFFKRTCQKNAKYVCLANKNCPVDKRRRNRCQYCRFQKCLAVGMVKEVVRTD"
Ans: -0.071

Q: Give the measured abundance fitness for "EGLCAVCGDNAACQHYGVRTCEGCKGFFKRTVQKNAKHVCLANKNCPVDKRRRNRCQYCRFQKCLAVGMVKEVVRTD"
Ans: 0.149

Q: Complete the entry with abundance fitness for "EGLCAVCGDNAACGHYGVRTCEGCKGFFKRTVQKNAKYVCLANKNCPVDKRRRNRCQYCRFQKCLAVGMVKEVVRTD"
Ans: 0.005

Q: Name the recorded abundance fitness of the item "EGLCAVCGDNAACQHYGGRTCEGCKGFFKRTVQKNAKYVCLANKNCPVDKRRRNRCQYCRFQKCLAVGMVKEVVRTD" in your answer.
Ans: -0.112

Q: Specify abundance fitness for "EGLCAVCGDNAACQHYGVRTCEGCKGFFKRTVQKNAKYVCLANKNCPVDKRRRNRCQYCRFQKCLAVGMVKEVVRTE" and stop.
Ans: 0.117

Q: Provide one value: measured abundance fitness of "EGLCAVCGDNAACQHPGVRTCEGCKGFFKRTVQKNAKYVCLANKNCPVDKRRRNRCQYCRFQKCLAVGMVKEVVRTD"
Ans: -0.112

Q: Hello, please tell me recorded abundance fitness for this one: "EGLCAVCGDNAACQHYGVRTCEGCKGFFKITVQKNAKYVCLANKNCPVDKRRRNRCQYCRFQKCLAVGMVKEVVRTD"
Ans: -0.163

Q: Read the entry "EGLCAVCGDNAACQHYGVRTCEGCKGFFKRTVQKNAKYVCLANKNCPVDKRRRNRCPYCRFQKCLAVGMVKEVVRTD" and write its reported abundance fitness.
Ans: 0.187

Q: Query abundance fitness for "EGLCAVCGDNAACQHYGVRTCEGCKGFFKRTVQKNAKYVCLANKNCPVDKRRRCRCQYCRFQKCLAVGMVKEVVRTD"
Ans: -0.472

Q: Return value of abundance fitness for input "EGLCAVCGDNAACQHYGCRTCEGCKGFFKRTVQKNAKYVCLANKNCPVDKRRRNRCQYCRFQKCLAVGMVKEVVRTD" , no commentary.
Ans: -0.263

Q: For the variant "EGLCAVCGDNAACQHYGVRTCEGCKGFFKRTVQKRAKYVCLANKNCPVDKRRRNRCQYCRFQKCLAVGMVKEVVRTD" , give its measured abundance fitness value.
Ans: -0.136

Q: For the variant "EGLCAVCGDNAACQHYGVRTCEGCKGFFKRTVQKNAKYVCLANKNCPVDKRRRNRCQYCRFQKCLAVGMVKELVRTD" , report abundance fitness.
Ans: -0.065
